- Tested on: P388 leukemia ip, CD2F1 mice, survival T/C
- Measurement description: NCI In Vivo Anticancer Drug Screen. Data for tumor model P388 Leukemia (intraperitoneal) in CD2F1 (CDF1) mice
- Recorded conditions: endpoint: median survival time; dose: 6.25 mg/kg/injection; schedule: Q01DX009 (ip); vehicle: Klucel (hydroxypropylcellulose) (HPC); higher = longer survival
Inconclusive results and toxic doses are left out.
Attribute measured: T/C

>  <Molecule>
Cc1cc(N(CCOS(C)(=O)=O)CCOS(C)(=O)=O)ccc1C=Nc1ccc(-c2csc(-c3ccccc3)n2)c(Cl)c1

>  <T/C>
110 % of control

$$$$

So what T/C did "O=C(O)c1ccc(S(=O)(=O)OCCCl)cc1" get with P388 leukemia ip, CD2F1 mice, survival T/C?
107 % of control

Do the same for CC1CCC(C(C)C2C(O)CC3C4CCC5CC(N)CCC5(C)C4CCC32C)=NC1 (stereo not drawn) (tested in a mixture with another compound) please
100 % of control

Do the same for CC12CCC3c4ccc(O)cc4CCC3C1C/C(=C\C(=O)O)C2=O (stereo not drawn) please
111 % of control

Do the same for "O=[N+]([O-])c1ccc(-c2nc3ncncc3[nH]2)cc1" please
107 % of control

Do the same for "Cn1c(=O)c2c(nc(NCC[N+](C)(C)Cc3ccc(Cl)cc3)n2C)n(C)c1=O" please
93 % of control

Do the same for CCN(CC)CCCC(C)Nc1cc(C)nc2cc(N(C)C)ccc12 (stereo not drawn) please
99 % of control

Do the same for "COc1c(Cl)c(=O)oc2ccc(Cl)cc12" please
104 % of control

* * *

- Test system: P388 leukemia ip, CD2F1 mice, survival T/C
- Measurement description: NCI In Vivo Anticancer Drug Screen. Data for tumor model P388 Leukemia (intraperitoneal) in CD2F1 (CDF1) mice
- Recorded conditions: endpoint: median survival time; dose: 100.0 mg/kg/injection; schedule: Q01DX009 (ip); vehicle: saline with Tween-80; higher = longer survival
Toxic doses and inconclusive results are not listed.
Item-by-item account of T/C

Here's what some known entries look like.
>  <Compound>
O=C(N/N=C\C12CC3CC(CC(C3)C1)C2)c1ccncc1

>  <Result>
90 % of control

$$$$
>  <Compound>
COC(=O)C1=C(C)NC(C)=C(C(=O)OC)C(N2C(=O)CCC2=O)C1 (stereo not drawn)

>  <Result>
88 % of control

$$$$
>  <Compound>
C/C(=N\NC(=O)c1cc(C)nc2ccc(Br)cc12)c1ccccc1O

>  <Result>
94 % of control

$$$$
>  <Compound>
COc1cccc(CN2CCN(/N=C/c3c4c(O)c5c(O)c(C)c6c(c5c3O)C(=O)C(C)(O/C=C/C(OC)C(C)C(OC(C)=O)C(C)C(O)C(C)C(O)C(C)/C=C/C=C(C)C(=O)N4)O6)CC2)c1 (stereo not drawn)

>  <Result>
121 % of control

$$$$
>  <Compound>
Cc1ccc(-c2cc(Cl)c3cc(S(=O)(=O)F)ccc3n2)cc1

>  <Result>
104 % of control

$$$$
>  <Compound>
COC(=O)C1(C)CCCC2(C)c3cc(OC)ccc3C(=O)C(Br)C12 (stereo not drawn)

>  <Result>
100 % of control

$$$$
>  <Compound>
O=C1c2ccccc2C(O)(C#Cc2ccccc2)c2cc(Cl)ccc21 (stereo not drawn)

>  <Result>
102 % of control

$$$$
>  <Compound>
C=CC1CN2CCC1CC2C(O)c1ccnc2ccc(OC)cc12 (stereo not drawn) (tested in a mixture with another compound)

>  <Result>
109 % of control

$$$$

Please look at the following compound next.
Need T/C of "CC(C)CCc1cc(O)ccc1O" , thanks.
98 % of control
